# Tested on: HepG2
# protocol.text: HepG2 toxicity
# Type: cell-based
# conditions.used: Tables 1-3
Quick reference: HepG2 of the listed items.
Your answer should be a plain number; it is taken to be in µg/mL.

Consider the worked cases shown below.
# structure.notation, observed.value
measured = [
    ("O=C(N/N=C/c1cc(Br)ccc1O)c1ccc(Br)cc1Br", 59),
    ("O=C(N/N=C/c1cc(Cl)cc(Cl)c1O)c1ccc(Br)cc1Br", 64),
]

Then there is this compound:
Exercise: Consider the compound Cc1ccc(O)c(/C=N/NC(=O)c2cc(Br)ccc2Br)c1 and give its measured HepG2.
Key: 32
